target: T1, soluble human CTLA-4 expressed with a C-terminal myc-myc-polyhistidine tag (human); experiment: SPR, mAb capture, 25 C
T1 construct: soluble protein; also called hCTLA-4.mmh; hCTLA4.mmh
T1 sequence (chain, as listed by the source limits assumed): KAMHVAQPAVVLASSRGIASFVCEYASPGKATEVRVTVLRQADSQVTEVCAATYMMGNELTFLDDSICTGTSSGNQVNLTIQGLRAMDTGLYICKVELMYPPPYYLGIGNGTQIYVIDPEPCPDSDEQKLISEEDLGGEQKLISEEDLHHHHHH
Reported Property: Kd (nM)
All answers are understood in nM, so give the number only.

Please review the following examples before continuing.
Inquiry: Dear colleague, I am looking for the recorded Kd of the following binder: H1H19278P (antibody, human IgG1, V domains shown) VH: QVQLVESGGGVVQPGRSLRLSCAASGFTFSSYGMNWVRQAPGKGLEWVAVTWYDGSNKHYADSVKGRFTISRDNSKNTLYLQMYSLRAEDTAMYYCVRGGHLGAFDIWGQGTMVTVSS VL: EIVLTQSPGTLSLSPGERATLSCRASQSVSSYLAWYQQKPGQAPRLLIYGASSRATGIPDRFSGGGSGTDFTLTISRLEPEDFAVYYCQQYGSSPFTFGPGTKVDIK
Reply text: 2.25

Inquiry: Dear colleague, I am looking for the recorded Kd of the following binder: H1H20386N (antibody, human IgG1, V domains shown, here with human IgG1 Fc (H1H)) VH: QVQLVESGGGVVQPGRSLRLSCAASGFTVNRYGIHWVRQAPGKGLEWVAVTWYDGRNKYFADSVKGRFSFSRDSSTNTLYLQMNSLRAEDTAVYYCARGGLFGYFDYWGQGTLVTVSS VL: EIVLTQSPDTLSLSPGERATLSCRASQSVAGSYLAWYQQKPGQAPRLLIYGASSRATGIPDRFSGSGSGTDFTLTISRLEPEDFAVYYCQQYGTSPWTFGQGTKVEIT
Reply text: 10.5

Inquiry: Dear colleague, I am looking for the recorded Kd of the following binder: H1H19284P (antibody, human IgG1, V domains shown) VH: EVQLVESGGGLVQPGGSLRLSCAASGFTLSNYVMTWVRQAPGKGLEWVSAISGRGGNSYYADSVKGRFSISRDHSKNTLYLQVNSLRAEDTAVYYCAKAERGYSYGFNWFDPWGQGTLVTVSS VL: DIQMTQSPSSVSASAGDRVTITCRASQGISSWLAWYQQKPGKAPKLLIYAASSLQSGVPSRFSGSGSGTDFTLTISSLQPEDFASYYCQQGNNFPLTFGGGTKVEIK
Reply text: 2.49

Inquiry: Dear colleague, I am looking for the recorded Kd of the following binder: H1H20372N (antibody, human IgG1, V domains shown, here with human IgG1 Fc (H1H)) VH: EVQLVESGGGLVQPGRSLRLSCAGTGFIFDDYAMHWVRQAPGKGLEWVSGISWNSNSLGYADSVKGRFTISRDNAKKSLYLQMSSLRAEDTALYYCVKDVTRLELRGFLDYWGQGTQVTVSS VL: DIQMTQSPSSLSASVGDRVTITCRASQDIRNDLGWHQQKSGKAPKSLIYAASSLQSGAPSRFSGSGSGTEFTLTISSLQPEDSATYYCLQQNSYPPTFGQGTKVEIK
Reply text: 4.55

Inquiry: Dear colleague, I am looking for the recorded Kd of the following binder: H1H20370N (antibody, human IgG1, V domains shown, here with human IgG1 Fc (H1H)) VH: QVQLHESGPGLVKPSQTLSLTCSVSGGSISNGGYYWSWIRQHPGQGLEWIGYIYYIGNTYYNPSLESRVTMSIDTSKNQFSLKLSSVTAADTAIYYCARQEFVPGAEYFLHWGQGILVTVSS VL: DIRMTQSPSSLSASVGDRVTITCRASQTVNTFLNWYQQKPGKAPKLLIFGASSLQSGVPSRFSGSGSGTDFTLTISGLQPEDFAIYYCQQSYSVPPITFGQGTRLEIE
Reply text: 3.43

New cases:
Inquiry: Dear colleague, I am looking for the recorded Kd of the following binder: H1H19294P (antibody, human IgG1, V domains shown) VH: QVQLVQSGAEVKMSGASVRVSCKASGYTFTSYGISWMRQAPGQGLEWMGWITAYNGNSNYAQKLQGRVTMTTDTSTGTAYMELRSLTSDDTAVYYCARRGDYLGVFPYWGQGTLVTVSS VL: DIQMTQSPSSLSASVGDRVTITCRASQSISSYLNWYQQKPGKAPNLLIYTASSLQSGVPSRFSGSGSGTDFTLTISSLQPEDFATYYCQQSYSSPLTFGGGTKVEIK
Reply text: 1.13

Inquiry: Dear colleague, I am looking for the recorded Kd of the following binder: H1H19281P (antibody, human IgG1, V domains shown) VH: QVQLVESGGGVVQPGRSLRLSCAASGLTFSYYGMHWVRQAPGKGLEWVAVISYDGSNKYYADSVKGRFTISRDNSKNTLYLQMNSLRAEDAAVYYCAKDLGGDDYYGMDVWGQGTTVTVSS VL: EIVLTQSPGTLSLSPGERATLSCRASQSVSRTYLAWYQQKPGQAPRLLIYGAFSRATGIPDRFSGSGSGTDFTLTISRLEPEDFAVYYCQQYGSSPYTFGQGTKLEIK
Reply text: 1.53

Inquiry: Dear colleague, I am looking for the recorded Kd of the following binder: H1H19307P (antibody, human IgG1, V domains shown) VH: EVQLVESGGGLVQPGGSLRLACAASGFTFSDYYMDWVRQVPGKGLEWVGRSRDKANSFTTEYVASVKGRFTISREDSKNSVYLQMNSLKTEDTAVYYCARTNYDFSLDVWGQGTTVTVSS VL: DIQMTQSPSSLSASVGDRVTITCRASQDINNYLAWFQQKPGNAPKSLIYAASSLQSGVPSKFSGSGSGTDFTLTISSLQPEDFATYYCQQYSTYPITFGQGTRLEIK
Reply text: 1.31

Inquiry: Dear colleague, I am looking for the recorded Kd of the following binder: H1H19305P (antibody, human IgG1, V domains shown) VH: QVQLQESGPGLVKPSQTLSLTCTVSGGSITSGGYYWSWIRQHPGKGLEWIGYIFYSGITNYNPSLKSRVTISVDTSKNQFSLKLTSVTAADTAVYYCATYNSLRLYYGMDVWGQGTTVTVSS VL: DVVMTQSPLSLPVILGQPASISCRSSQSLVYGDGNTYLNWFQQRPGQSPRRLIYKVSNRDSGVPDRFSGSGSGTDFTLKISRVEAEDVGVYYCMQSTHWPLTFGGGTKVEIK
Reply text: 4.19

Inquiry: Dear colleague, I am looking for the recorded Kd of the following binder: H1H19269P (antibody, human IgG1, V domains shown) VH: EVQLVESGGGLVQPGGSLKLSCAASGFTFSGSAMHWVRQASGKGLEWVGRIRGKANSFATAYSASVKGRFTISRDDSKNTASLQMNSLRTEDTAVYFCTREDQQLVRPYYYHYGMDVWGQGTTVTVSS VL: DIQMTQSPSSLSASVGDRVTITCRTSQSITNYLNWYQQKPGKAPKLLIYATASLQSGVPSRFSGSGSETDFTLTISSLQPEDFATYYCQQSYSTPLTFGGGTKVEIK
Reply text: 1.2
